experiment: Acute toxicity (oral LD50 in rats); format: in vivo; settings: rat, in vivo, po, SD-strain female rats 150 to 200 g, observed for 2 weeks
Structures can show the parent of a compound that is named as a salt.
assayReadout: LD50 at 336 h (mg/kg)
Write it as a number; the unit mg/kg goes unstated.

**Query** Assign LD50 at 336 h to the following record: COc1ccc(C(O)CN2CCN(C(c3ccccc3)c3ccccc3)CC2)cc1OC (racemic) [(±)-Derivative, dihydrochloride]
**Result** 29.1

Just for reference, patent US4978666A is where these values come from.
